Read-out: Interleukin-1 alpha (IL1a), IL1A (gene 3552)
Assay: BSK_LPS_IL1a: BioMAP Diversity Plus: LPS Assay for Interleukin-1 alpha (IL1a) Biomarker Activity (AID 2283080)
Details: primary human HUVEC with PBMC; actives raise or lower the signal
The source made the active and inactive calls. How the source made its calls: active means hit-call score of the fitted dose curve at least 0.9, where 1 is the maximum; inactive means score below 0.9.
Assign a class; possible classes are true for active, false for inactive

Recorded results for 6 compounds are shown here.
Compound: CC(C)CC(C)(O)C#CC(C)(O)CC(C)C (stereo not given)
Assigned Class: false
--
Compound: COCCOCCOCCOC
Assigned Class: false
--
Compound: CCCCCCc1ccc(O)cc1O
Assigned Class: true
--
Compound: O=C(OC[C@H]1O[C@@H](OC(=O)c2cc(O)c(O)c(OC(=O)c3cc(O)c(O)c(O)c3)c2)[C@H](OC(=O)c2cc(O)c(O)c(OC(=O)c3cc(O)c(O)c(O)c3)c2)[C@@H](OC(=O)c2cc(O)c(O)c(OC(=O)c3cc(O)c(O)c(O)c3)c2)[C@@H]1OC(=O)c1cc(O)c(O)c(OC(=O)c2cc(O)c(O)c(O)c2)c1)c1cc(O)c(O)c(OC(=O)c2cc(O)c(O)c(O)c2)c1
Assigned Class: false
--
Compound: COc1ccc(-n2nc(C(F)F)cc2-c2ccc(S(C)=O)cc2)cc1 (stereo not given)
Assigned Class: true
--
Compound: Cc1ccc(C)c(O)c1
Assigned Class: false

Q) Hey, what did the test say about COc1ccc(/C=C/S(=O)(=O)NC(=O)c2ccc(C)cc2Cl)cc1 ?
A) false

Q) Hey, what did the test say about C=CCCCCCCCCC(=O)O ?
A) false

Q) Hey, what did the test say about Cc1ccc(N)cc1O ?
A) false

Q) Hey, what did the test say about CC[C@H](C)C(=O)O[C@H]1C[C@@H](C)C=C2C=C[C@H](C)[C@H](CC[C@@H]3C[C@@H](O)CC(=O)O3)[C@H]21 ?
A) true
